The values you see were collected from ChEMBL document CHEMBL1152933.

System: K562
Measurement notes: Antiproliferative activity against human K562 cells after 48 hrs by MTT assay
Assay type: functional, cell-based
Condition details: K562, 48 h
Could you please report measured pIC50 for the items listed next?
Please express pIC50 as -log10 of the molar concentration.

Returns the measured pIC50 for the input molecule. Input: Cn1cc(C2=C(c3nn(CCCO)c4ncccc34)C(=O)NC2=O)c2ccccc21
4.07

Returns the measured pIC50 for the input molecule. Input: Cn1cc(C2=C(c3nn(CCCn4cccc4)c4ncccc34)C(=O)N(c3ccccc3)C2=O)c2ccccc21
4.44

Returns the measured pIC50 for the input molecule. Input: Cn1cc(C2=C(c3nn(CCCN4CCCCC4)c4ncccc34)C(=O)N(c3cccc4ccccc34)C2=O)c2ccccc21
5.50

Returns the measured pIC50 for the input molecule. Input: CN1CCN(CCCn2nc(C3=C(c4cn(C)c5ccccc45)C(=O)NC3=O)c3cccnc32)CC1
4.33

Returns the measured pIC50 for the input molecule. Input: CN(C)CCCn1nc(C2=C(c3cn(C)c4ccccc34)C(=O)N(c3ccccc3)C2=O)c2cccnc21
5.77

---

Could you please report measured pIC50 for the items listed next?
Tested on: K562
Measurement notes: Antiproliferative activity against human K562 cells after 48 hrs by MTT assay
Format: functional, cell-based
Condition details: K562, 48 h
Please express pIC50 as -log10 of the molar concentration.

Give the reported pIC50 for Cn1cc(C2=C(c3nn(CCCCn4ccnc4)c4ncccc34)C(=O)N(c3ccccc3)C2=O)c2ccccc21 (system: K562).
5.30

Give the reported pIC50 for Cn1cc(C2=C(c3nn(CCCn4ccnc4)c4ncccc34)C(=O)NC2=O)c2ccccc21 (system: K562).
4.86

Give the reported pIC50 for Cn1cc(C2=C(c3nn(CCCn4ccnc4)c4ncccc34)C(=O)N(c3ccccc3)C2=O)c2ccccc21 (system: K562).
5.26

Give the reported pIC50 for O=C1NC(=O)C(c2c[nH]c3ccccc23)=C1c1c[nH]c2ccccc12 [RO-316233] (system: K562).
4.76

Give the reported pIC50 for Cn1cc(C2=C(c3nn(CCCN4CCCCC4)c4ncccc34)C(=O)N(c3ccccc3)C2=O)c2ccccc21 (system: K562).
5.42

Give the reported pIC50 for Cn1cc(C2=C(c3nn(CCCN4CCCCC4)c4ncccc34)C(=O)N(c3ccc(Cl)cc3)C2=O)c2ccccc21 (system: K562).
5.74

---

Tested on: SMMC-7721
Measurement notes: Antiproliferative activity against human SMMC7721 cells after 48 hrs by MTT assay
Type: functional, cell-based
Condition details: SMMC-7721, 48 h
Could you please report measured pIC50 for the items listed next?
Please express pIC50 as -log10 of the molar concentration.

Returns the measured pIC50 for the input compound. Input: COc1ccc(N2C(=O)C(c3cn(C)c4ccccc34)=C(c3nn(CCCN4CCCCC4)c4ncccc34)C2=O)cc1
5.76

Returns the measured pIC50 for the input compound. Input: Cn1cc(C2=C(c3nn(CCCN4CCCCC4)c4ncccc34)C(=O)NC2=O)c2ccccc21
5.12

---

Could you please report measured pIC50 for the items listed next?
Measurement notes: Inhibition of PKC by […] assay
pIC50: −log10 of the molar value.

Returns the measured pIC50 for the input compound. Input: Cn1cc(C2=C(c3nn(CCCn4cccc4)c4ncccc34)C(=O)N(c3ccccc3)C2=O)c2ccccc21
< 5.00

Returns the measured pIC50 for the input compound. Input: COc1ccc(N2C(=O)C(c3cn(C)c4ccccc34)=C(c3nn(CCCN4CCCCC4)c4ncccc34)C2=O)cc1
< 5.00

Returns the measured pIC50 for the input compound. Input: Cn1cc(C2=C(c3nn(CCCN4CCCCC4)c4ncccc34)C(=O)N(c3ccccn3)C2=O)c2ccccc21
< 5.00

Returns the measured pIC50 for the input compound. Input: Cn1cc(C2=C(c3n[nH]c4ncccc34)C(=O)N(c3ccccc3)C2=O)c2ccccc21
< 5.00

Returns the measured pIC50 for the input compound. Input: Cn1cc(C2=C(c3n[nH]c4ncccc34)C(=O)N(c3cccc4ccccc34)C2=O)c2ccccc21
< 5.00

Returns the measured pIC50 for the input compound. Input: Cn1cc(C2=C(c3n[nH]c4ncccc34)C(=O)NC2=O)c2ccccc21
< 5.00

Returns the measured pIC50 for the input compound. Input: Cn1cc(C2=C(c3nn(CCCN4CCCCC4)c4ncccc34)C(=O)N(c3ccccc3)C2=O)c2ccccc21
< 5.00

Returns the measured pIC50 for the input compound. Input: Cn1cc(C2=C(c3nn(CCCCn4ccnc4)c4ncccc34)C(=O)N(c3ccccc3)C2=O)c2ccccc21
< 5.00

Returns the measured pIC50 for the input compound. Input: Cn1cc(C2=C(c3nn(CCCn4cncn4)c4ncccc34)C(=O)N(c3ccccc3)C2=O)c2ccccc21
< 5.00

---

Measurement notes: Antiproliferative activity against human ECA109 cells after 48 hrs by MTT assay
Assay type: functional, cell-based
Condition details: ECa-109, 48 h
pIC50: −log10 of the molar value.
Could you please report measured pIC50 for the items listed next?

Returns the measured pIC50 for the input compound. Input: CN1CCN(CCCn2nc(C3=C(c4cn(C)c5ccccc45)C(=O)NC3=O)c3cccnc32)CC1
< 4.00

Returns the measured pIC50 for the input compound. Input: CN(C)CCCn1nc(C2=C(c3cn(C)c4ccccc34)C(=O)NC2=O)c2cccnc21
< 4.00

Returns the measured pIC50 for the input compound. Input: Cn1cc(C2=C(c3nn(CCCn4cncn4)c4ncccc34)C(=O)N(c3ccccc3)C2=O)c2ccccc21
< 4.00

Returns the measured pIC50 for the input compound. Input: Cn1cc(C2=C(c3nn(CCCN4CCOCC4)c4ncccc34)C(=O)NC2=O)c2ccccc21
< 4.00

Returns the measured pIC50 for the input compound. Input: Cn1cc(C2=C(c3nn(CCCn4cccc4)c4ncccc34)C(=O)N(c3ccccc3)C2=O)c2ccccc21
< 4.00

Returns the measured pIC50 for the input compound. Input: Cn1cc(C2=C(c3n[nH]c4ncccc34)C(=O)N(c3ccccc3)C2=O)c2ccccc21
< 4.00

Returns the measured pIC50 for the input compound. Input: Cn1cc(C2=C(c3n[nH]c4ncccc34)C(=O)NC2=O)c2ccccc21
4.34

Returns the measured pIC50 for the input compound. Input: Cn1cc(C2=C(c3nn(CCCO)c4ncccc34)C(=O)NC2=O)c2ccccc21
< 4.00

Returns the measured pIC50 for the input compound. Input: Cn1cc(C2=C(c3nn(CCCn4cncn4)c4ncccc34)C(=O)NC2=O)c2ccccc21
< 4.00

Returns the measured pIC50 for the input compound. Input: Cn1cc(C2=C(c3nn(CCn4ccnc4)c4ncccc34)C(=O)NC2=O)c2ccccc21
< 4.00

Returns the measured pIC50 for the input compound. Input: COc1ccc(N2C(=O)C(c3cn(C)c4ccccc34)=C(c3nn(CCCN4CCCCC4)c4ncccc34)C2=O)cc1
5.48

Returns the measured pIC50 for the input compound. Input: Cn1cc(C2=C(c3nn(CCCn4cccc4)c4ncccc34)C(=O)NC2=O)c2ccccc21
< 4.00

Returns the measured pIC50 for the input compound. Input: Cn1cc(C2=C(c3nn(CCCCn4ccnc4)c4ncccc34)C(=O)N(c3ccccc3)C2=O)c2ccccc21
5.12

Returns the measured pIC50 for the input compound. Input: Cn1cc(C2=C(c3nn(CCCN4CCCCC4)c4ncccc34)C(=O)N(c3ccccn3)C2=O)c2ccccc21
5.14

Returns the measured pIC50 for the input compound. Input: Cn1cc(C2=C(c3n[nH]c4ncccc34)C(=O)N(c3cccc4ccccc34)C2=O)c2ccccc21
< 4.00

Returns the measured pIC50 for the input compound. Input: Cn1cc(C2=C(c3nn(CCCN4CCCCC4)c4ncccc34)C(=O)NC2=O)c2ccccc21
4.37

Returns the measured pIC50 for the input compound. Input: Cn1cc(C2=C(c3nn(CCCn4ccnc4)c4ncccc34)C(=O)NC2=O)c2ccccc21
< 4.00

Returns the measured pIC50 for the input compound. Input: Cn1cc(C2=C(c3nn(CCCN4CCCCC4)c4ncccc34)C(=O)N(c3ccc(Cl)cc3)C2=O)c2ccccc21
< 4.00

---

Could you please report measured pIC50 for the items listed next?
Test system: K562
Measurement notes: Antiproliferative activity against human K562 cells after 48 hrs by MTT assay
Format: functional, cell-based
Condition details: K562, 48 h
pIC50: −log10 of the molar value.

Returns the measured pIC50 for the input molecule. Input: COc1ccc(N2C(=O)C(c3cn(C)c4ccccc34)=C(c3nn(CCCN4CCCCC4)c4ncccc34)C2=O)cc1
< 4.00

Returns the measured pIC50 for the input molecule. Input: Cn1cc(C2=C(c3n[nH]c4ncccc34)C(=O)N(c3cccc4ccccc34)C2=O)c2ccccc21
< 4.00

Returns the measured pIC50 for the input molecule. Input: Cn1cc(C2=C(c3nn(CCn4ccnc4)c4ncccc34)C(=O)NC2=O)c2ccccc21
< 4.00
